Experiment: Components of the Cytosolic LPS Sensing Pathway: Gene Identification via Genome-wide siRNA Screen;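 also: robust z of the log signal after scaling to non-targeting control siRNA wells of the plate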
Details: RAW264.7 macrophages, IL-1a HTRF, actives lie on both sides, screened at 100 nM (by protocol), cells primed 5 h with Pam3CSK4 first
The whole screen tested about 53,000 sequences, of which about 3,700 (7%) were called active. This excerpt belongs to a sample that is enriched for actives.
recorded endpoint: z-score

• CGUACUCUUUCUUUAAUCCTT against Umod = -0.622
• CGGUAGAGUCAGCAUUUGATT against Sez6 = -0.231
• GGGCAGCAGCAAUUUCUGUTT against Ahcyl1 = 1.39
• CCACUUCAUGAUUGAGUGCTT against Phf8-ps = -0.836
• GGAGUUUGCCAGUGAAUUUTT against Ptpn22 = -0.603
• GGCAGGUUUUUGACAACUUTT against Fxyd4 = 3.2
• GGGAAGUGGAAACAGUUCUTT against Icam2 = 0.461
• GGUGUUUGUUCGGAAGCUCTT against Pes1 = -0.345
• GCACUGUAUUCUUGAGCACTT against 1700020L24Rik = 2.06
• CCUCACUGUGGUAACAUUATT against Olfr452 = 1.84
• GGUAGCAGACAGCUACCCUTT against Tnfsf15 = 0.405
• GCGCAUCUAUGAAAAAACATT against Cerk = -0.471
